biological target: Glycogen synthase kinase-3 alpha (Homo sapiens) (UniProt P49840); test: concentration-response blocking of human GSK3A – biochemical, luminescence, cell-free homogeneous, retest, dose response (AID 463203); conditions: GSK-3 alpha enzyme, ADP-Glo luminescence, 60 min
Sequence (P49840 whole entry, looked up): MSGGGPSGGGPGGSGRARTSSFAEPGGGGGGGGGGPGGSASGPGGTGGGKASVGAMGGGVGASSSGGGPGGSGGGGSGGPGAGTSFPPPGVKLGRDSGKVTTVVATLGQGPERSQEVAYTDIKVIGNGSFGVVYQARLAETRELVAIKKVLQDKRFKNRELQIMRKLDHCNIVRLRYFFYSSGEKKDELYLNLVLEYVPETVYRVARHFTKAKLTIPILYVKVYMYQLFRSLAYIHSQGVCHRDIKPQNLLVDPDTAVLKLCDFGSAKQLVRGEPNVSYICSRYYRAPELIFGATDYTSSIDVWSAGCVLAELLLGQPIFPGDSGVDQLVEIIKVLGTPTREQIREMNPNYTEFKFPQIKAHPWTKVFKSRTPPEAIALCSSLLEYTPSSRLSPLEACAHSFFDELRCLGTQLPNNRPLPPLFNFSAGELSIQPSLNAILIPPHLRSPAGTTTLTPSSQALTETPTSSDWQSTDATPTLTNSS
Activity calls are given as the source filed them.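 Rule for the calls: active = more than half of replicate measurements showing over 20% loss of kinase signal relative to plate controls; inconclusive = some but at most half of replicates over 20% loss; inactive = no replicate over 20% signal loss.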
Possible outcomes: class 1 (active), class 0 (inactive)

INSERT INTO assay_data (molecule, assayed_system, assigned_label) VALUES
  ('O=C(NCCCN1CCOCC1)c1cc(Cl)ccc1[N+](=O)[O-]', 'Glycogen synthase kinase-3 alpha (Homo sapiens) (UniProt P49840)', 'class 0'),
  ('CCCNC(=O)NC(C(=O)OC)C12CC3CC(CC(C3)C1)C2 (configuration not stated)', 'Glycogen synthase kinase-3 alpha (Homo sapiens) (UniProt P49840)', 'class 0'),
  ('O=c1[nH]c(=O)n(C2CCCCCC2)c(O)c1C=NCCCN1CCOCC1', 'Glycogen synthase kinase-3 alpha (Homo sapiens) (UniProt P49840)', 'class 1'),
  ('O=S(=O)(NCC1CCCO1)c1ccc(Cl)nc1 (configuration not stated)', 'Glycogen synthase kinase-3 alpha (Homo sapiens) (UniProt P49840)', 'class 0'),
  ('Clc1nccnc1N/N=C/c1ccc(Br)cc1', 'Glycogen synthase kinase-3 alpha (Homo sapiens) (UniProt P49840)', 'class 0'),
  ('COc1ccccc1NC(=O)CCSc1nnc(-c2ccc(O)cc2)o1', 'Glycogen synthase kinase-3 alpha (Homo sapiens) (UniProt P49840)', 'class 1'),
  ('CSCCC1NC(=S)N(Cc2ccccc2)C1=O (configuration not stated)', 'Glycogen synthase kinase-3 alpha (Homo sapiens) (UniProt P49840)', 'class 0'),
  ('Fc1cccc(/C=N/Nc2nccnc2Cl)c1', 'Glycogen synthase kinase-3 alpha (Homo sapiens) (UniProt P49840)', 'class 0'),
  ('Cc1cccc(N(C)C(=O)C2CCCN2S(=O)(=O)c2cccc3nsnc23)c1 (configuration not stated)', 'Glycogen synthase kinase-3 alpha (Homo sapiens) (UniProt P49840)', 'class 1'),
  ('O=C(NCCN1CCN(Cc2ccccc2)CC1)Nc1cc(Cl)cc(Cl)c1', 'Glycogen synthase kinase-3 alpha (Homo sapiens) (UniProt P49840)', 'class 0'),
  ('COCc1c(C(=O)N/N=C\c2cccnc2)nnn1-c1nonc1N', 'Glycogen synthase kinase-3 alpha (Homo sapiens) (UniProt P49840)', 'class 0'),
  ('CCN(CC)c1nc(N)c([N+](=O)[O-])c(NCCO)n1', 'Glycogen synthase kinase-3 alpha (Homo sapiens) (UniProt P49840)', 'class 0');
